System: HCT-15 colon
Assay: NCI-60 one-dose screen, 48 h
Conditions: 10 µM
Compounds without any hit were thinned out: in the full panel of roughly 83,000, 20% have a hit. The source made the active and inactive calls. How the source made its calls: active means growth percent below 10; inactive means the rest.
Use one of these outcomes when replying: active, inactive

Answered examples (3):
CC1=C(C=O)C2=C(C)C3(CC3)[C@@](C)(O)C(=O)C2=C1; active
CC(C)N=C([Se])NC(=O)c1cccs1; inactive
COP(=O)(CC(F)(F)C(F)(F)F)OC; active

Problem: Would you mind telling me which call this test gave `CC(=O)Oc1ccccc1C(=O)[Se]C(=NC(C)C)NC(C)C` ?
Result: active

----------
System: IGROV1 ovarian
Test: NCI-60 one-dose screen, 48 h (100 = growth as untreated, 0 = no growth, -100 = all killed)
Details: 10 µM
Compounds without any hit were thinned out: in the full panel of roughly 83,000, 20% have a hit.
compounds and their reported growth
Answer format: numeric, % implied, no suffix.

Here is how some compounds turned out for growth.
O=C(/C=C/c1ccc(Cl)cc1Cl)c1nc2ccccc2n1Cc1ccc(Br)cc1; 68.4
CC(C)C[C@H](NC(=O)CNC(=O)C[C@H]1O[C@@H]2OC3(C)CC[C@H]4[C@H](C)CC[C@@H]([C@H]1C)[C@@]24OO3)B(O)O; 2.58
C[C@H]1[C@H](OC(=O)CCC(=O)N(CCCc2cn(-c3ccc(C#N)cc3)nn2)CCNc2ccnc3cc(Cl)ccc23)O[C@@H]2OC3(C)CC[C@H]4[C@H](C)CC[C@@H]1[C@@]24OO3; 44.5
CC12CCC3(CCC(=O)NCCCNc4ccnc5cc(Cl)ccc45)[C@@](C)(OO[C@]3(C)O1)O2; -23.3

--- query ---
Problem: Name the reported growth value associated with the compound `C=CC[Se]C(=O)c1ccc(C(=O)[Se]CC=C)s1`
Result: -78.9

Every entry's value here was drawn from PubChem BioAssay (NCI).
